Where do these numbers come from? They come from ChEMBL document CHEMBL4152314.

method: Cytotoxicity against African green monkey Vero cells assessed as growth inhibition
Format: cell-based
condition details: chlorocebus sabaeus
Entries annotated with measured CC50
Output spec: scalar in µM, unitless text.

Previously resolved entries follow.
smiles string: O=C1/C(=C/c2ccc(F)cc2)CCC/C1=C\c1ccc(F)cc1
CC50 (µM): 34.4

smiles string: COc1cccc(/C=C2\CCC/C(=C\c3ccc(F)cc3)C2=O)c1OC
CC50 (µM): 33.2

smiles string: COc1ccc(/C=C2\CCC/C(=C\c3ccc(N(C)C)cc3)C2=O)cc1
CC50 (µM): 392

smiles string: COc1ccc(/C=C2\CCCCC2=O)cc1
CC50 (µM): 194

smiles string: COc1ccc(/C=C2\CCC/C(=C\c3cccc(OC)c3OC)C2=O)cc1OC
CC50 (µM): 36.1

Item COc1ccc(/C=C2\CCC/C(=C\c3cccc(Br)c3)C2=O)cc1 has what recorded CC50?
30

Item COc1ccc(/C=C2\CCC/C(=C\c3ccc(OC)cc3)C2=O)cc1 has what recorded CC50?
178
